Assay: Terminal half life in rat at 1 mg/kg, iv
Format: ADME, organism-based
Set-up: dose 1 mg/kg, route intravenous
Settings: in vivo, read-out: beta t1/2 (converted)
observable: half-life (h)
Value expressed in h; do not type the unit.

Which half-life is reported for this molecule? Nc1nc(C(F)(F)F)cc2c1[nH]c(=O)n2Cc1ccccc1
1

###

Experiment: Octanol-neutral aqueous buffer partition coefficient, log D of the compound at pH 7.4
Type: physicochemical
observable: logD
Answer as a number with no unit attached.

CCCc1cc2c([nH]c(=O)n2Cc2ccccc2)c(N)n1 ... 3.1
Cc1nc(N)c2c(n1)N(Cc1ccccc1)C(=O)C2 ... 2
Cc1cc(N)c2[nH]c(=O)n(Cc3ccccc3)c2n1 ... 2.3
Nc1nccc2c1[nH]c(=O)n2Cc1ccccc1 ... 1.9
Cc1nc(N)c2[nH]c(=O)n(Cc3ccccc3)c2c1C ... 2.6

Now, please, on to the next molecule.
What value of logD has been reported for the following molecule? Cc1nc(N)c2c(n1)N(Cc1ccccc1)C(=O)NC2
1.6

###

Assay: Oral bioavailability in rat at 2 mg/kg administered as solution
Assay type: ADME, organism-based
Settings: in vivo
observable: bioavailability (%)
Value expressed in %; do not type the unit.

Which bioavailability value is on record for Nc1nc(C(F)(F)F)cc2c1[nH]c(=O)n2Cc1ccccc1 ?
48

###

Experiment: Clearance in rat at 1 mg/kg, iv
Type: ADME, organism-based
Set-up: dose 1 mg/kg, route intravenous
Details: in vivo
observable: clearance (mL/min/kg)
Numbers only here, please. The scale is mL/min/kg.

Recorded clearance of Nc1nc(C(F)(F)F)cc2c1[nH]c(=O)n2Cc1ccccc1 , please.
33

###

Assay: Intrinsic clearance in human liver microsomes
Format: ADME
Conditions: read-out: CLH
observable: microsomal CLint

Nc1nccc2c1[nH]c(=O)n2Cc1ccccc1 ... < 7 µL/min/mg
Nc1cc(C2CC2)nc2c(Cc3ccccc3)c(=O)[nH]n12 ... < 7 µL/min/mg
Cc1nc(N)c2c(n1)N(Cc1ccccc1)C(=O)C2 ... < 7 µL/min/mg

Given the molecule O=c1[nH]n2c(O)nc(C3CC3)cc2c1Cc1ccccc1 , what is its reported microsomal CLint?
< 7 µL/min/mg

I'd like to know its microsomal CLint. The molecule in question is CC(C)c1cc2c([nH]c(=O)n2Cc2ccccc2)c(N)n1
< 7 µL/min/mg

Reported microsomal CLint, molecule O=c1[nH]c2cnc(C(F)(F)F)cc2n1Cc1ccccc1 : ____
< 7 µL/min/mg

I'd like to know its microsomal CLint. The molecule in question is Cc1cc2c([nH]c(=O)n2Cc2ccccc2)c(N)n1
< 7 µL/min/mg

If you can, please state the reported microsomal CLint value of Cc1nc(N)c2c(n1)N(Cc1ccccc1)C(=O)NC2 .
16 µL/min/mg

// returns reported microsomal CLint for input Cc1cc(N)c2[nH]c(=O)n(Cc3ccccc3)c2n1
< 7 µL/min/mg

// lookup microsomal CLint for Cc1nc(N)c2[nH]c(=O)n(Cc3ccccc3)c2c1C
< 7 µL/min/mg

Which value of microsomal CLint has been reported for Cc1nc(N)c2nc(O)n(Cc3ccccc3)c2n1 in the records?
< 7 µL/min/mg

Given the entry Nc1nc(C(F)(F)F)cc2c1[nH]c(=O)n2Cc1ccccc1 , report its measured microsomal CLint.
< 7 µL/min/mg

Please look up its microsomal CLint: CCCc1cc2c([nH]c(=O)n2Cc2ccccc2)c(N)n1
14 µL/min/mg

###

Consider the following compounds and their measured logD readings.
Experiment: Octanol-neutral aqueous buffer partition coefficient, log D of the compound at pH 7.4
Type: physicochemical
Provide a numeric answer; units are not to be included.

Worked examples, 2 compounds total:
CC(C)c1cc2c([nH]c(=O)n2Cc2ccccc2)c(N)n1 ... 3.1
O=c1[nH]n2c(O)nc(C3CC3)cc2c1Cc1ccccc1 ... 1.7

I have this compound here, O=c1[nH]c2cnc(C(F)(F)F)cc2n1Cc1ccccc1 , and I need its recorded logD.
3.1

Given the compound Cc1cc2c([nH]c(=O)n2Cc2ccccc2)c(N)n1 , what is its reported logD?
2.3

May I ask what logD has been recorded for Nc1cc(C2CC2)nc2c(Cc3ccccc3)c(=O)[nH]n12 ?
1.6

###

System: Hepatitis C virus
Assay: Antiviral activity against Hepatitis C virus infected in human HuH7 cells
Format: functional, organism-based
Conditions: Hepacivirus hominis; Huh-7
Active and inactive are the calls of the source. The rule behind the calls is not given here.
observable: Activity

Past entries and their recorded results:
Cc1nc(N)c2c(n1)N(Cc1ccccc1)C(=O)C2 ... inactive
Cc1cc(N)c2[nH]c(=O)n(Cc3ccccc3)c2n1 ... inactive
Cc1cc2c([nH]c(=O)n2Cc2ccccc2)c(N)n1 ... inactive
Cc1nc(N)c2sc(=O)n(Cc3ccccc3)c2n1 ... inactive
Cc1nc(N)c2[nH]c(=O)n(Cc3ccccc3)c2c1C ... inactive
Cc1nc(N)c2nc(O)n(Cc3ccccc3)c2n1 ... inactive

Record request: Activity value, item COCCNc1nc(N)c2c(O)nn(Cc3ccccc3)c2n1
inactive

Would you mind telling me what Activity value was observed for Nc1cc(C2CC2)nc2c(Cc3ccccc3)c(=O)[nH]n12 ?
inactive

Which value of Activity has been reported for Cc1nc(N)c2c(n1)N(Cc1ccccc1)C(=O)NC2 in the records?
inactive

Which Activity reading was recorded for the compound O=c1[nH]n2c(O)nc(C3CC3)cc2c1Cc1ccccc1 ?
inactive

###

Assay: Volume of distribution at steady state in dog at 0.1 mg/kg, iv
Assay type: ADME, organism-based, Canis lupus familiaris
Parameters: dose 0.1 mg/kg, route intravenous
Conditions: in vivo, read-out: Vdss
observable: Vd (L/kg)
Respond numerically; units are L/kg and should not be typed.

What value of measured Vd is listed for Nc1nc(C(F)(F)F)cc2c1[nH]c(=O)n2Cc1ccccc1 ?
2.3

###

Experiment: Volume of distribution at steady state in rat at 1 mg/kg, iv
Assay type: ADME, organism-based
Parameters: dose 1 mg/kg, route intravenous
Settings: in vivo, read-out: Vdss
observable: Vd (L/kg)
Answer format: numeric, L/kg implied, no suffix.

Looking for the measured Vd of Nc1nc(C(F)(F)F)cc2c1[nH]c(=O)n2Cc1ccccc1 , can you help?
2.7
